test system: SK-OV-3 ovarian; assay: NCI tumour cell line growth inhibition, 48 h
// reported GI50 for each item listed

Example cases with answers are listed next.
{"columns": ["Compound", "Target", "Readout value"],
 "data": [
  ["Cc1c(C(=O)O[C@H]2[C@@H]3[C@H](C)CC[C@H]3[C@]3(C)O[C@@]2(C2CCCCC2)C[C@H]3OC(=O)CO)ccc2ccccc12", "SK-OV-3 ovarian", "9.19 µM"],
  ["O=[N+]([O-])c1cc(F)c2cccnc2c1O", "SK-OV-3 ovarian", "26.3 µM"],
  ["COc1ccc(/C=N/N=C(\\[O-])c2ccncc2)cc1F.COc1ccc(/C=N\\N=C(/[O-])c2ccncc2)cc1F.[Cu+2]", "SK-OV-3 ovarian", "11.8 µM"],
  ["O=C(CC(=O)c1ccccc1)c1ccccc1", "SK-OV-3 ovarian", "22.2 µM"],
  ["COc1ccc2c(c1)CC[C@@H]1[C@@H]2CC[C@]2(C)C=C(/C=C/C(=O)c3ccccc3)C[C@@H]12", "SK-OV-3 ovarian", "20.8 µM"],
  ["CN(C)CCNc1nc2ccccc2c2c(=O)c3ccccc3sc12", "SK-OV-3 ovarian", "4.68 µM"]
]}

Query: Lab note: need GI50 with SK-OV-3 ovarian for entry COc1cc(C2c3cc4c(cc3[C@@H](Nc3ccc(N)cc3)C3COC(=O)[C@H]23)OCO4)cc(OC)c1O (some centres undefined) , please look it up.
Reply: 0.805 µM

Query: Lab note: need GI50 with SK-OV-3 ovarian for entry `Oc1c(CN2CCOCC2)cc(COCc2ccccc2)c2cccnc12` , please look it up.
Reply: 3 µM

Query: Lab note: need GI50 with SK-OV-3 ovarian for entry `CC[C@H](NC(=O)[C@H](CS(=O)(=O)CC1CC1)N[C@@H](c1ccc(F)cc1)C(F)(F)F)C(=O)C(=O)NC1CC1` , please look it up.
Reply: > 100 µM

----------
tested on: SK-MEL-28 melanoma; assay: NCI tumour cell line growth inhibition, 48 h
Returns Satisfied if the recorded TGI is greater than or equal to 9 µM, and Not satisfied otherwise.

Query: Dear colleague, could you confirm whether `CN(C)CCNc1nc(-c2cccs2)cc(-c2cccs2)n1` has TGI at or above 9 µM?
Reply: Satisfied

----------
system: PC-3 prostate; experiment: NCI tumour cell line growth inhibition, 48 h
// reported TGI for each item listed

Example cases with answers are listed next.
{"columns": ["Compound", "Readout kind", "Readout value"],
 "data": [
  ["CCCCCCCCCCCCCCCCP(=O)([O-])OCC[N+](C)(C)C", "TGI", "8.66 µM"],
  ["Cc1nnc(-c2ccc(-c3nc4ccccc4o3)cc2)o1", "TGI", "> 100 µM"],
  ["COc1ccc2c(c1)-c1[nH]c3ccccc3c1CC2", "TGI", "29.6 µM"],
  ["COc1cc([C@@H]2c3cc4c(cc3C(OC3O[C@@H]5COC(C)O[C@H]5[C@H](O)[C@H]3O)C3COC(=O)[C@@H]32)OCO4)cc(OC)c1O (some centres not stated)", "TGI", "> 50 µM"],
  ["C=CCN1CCC2(CC1)NC(=O)c1ccccc1O2", "TGI", "> 100 µM"]
]}

Query: I would be grateful if you could share the reported TGI for CCOP(=O)(OCC)C(Nc1ccc(F)cc1)c1ccccc1 (configuration not stated) .
Reply: > 100 µM

Query: I would be grateful if you could share the reported TGI for `CC1=CC(=O)/C(=C/n2c(=S)[nH]c3ccccc32)C(=O)O1` .
Reply: > 100 µM
